Taken from PubChem BioAssay AID1963851.

Kindly state viability, T/C for each of the entries shown.
System: 188146-221-R-J1-PDC complex spheroid viability
test_method_notes: Anticancer human tumor 188146-221-R-J1-PDC patient-derived colon adenocarcinoma cell line growth inhibition [POLQ]
conditions_used: second compound 0.0316 µM; first compound 3.16 µM; stronger effect = lower value
State the answer as a number, implicitly in %.

Reported viability, T/C for CC1COCCN1c1cc(C2(S(C)(=N)=O)CC2)nc(-c2ccnc3[nH]ccc23)n1 (configuration not stated) + Nc1ccc(C#CCN(C(=O)Cc2ncc(C(F)(F)F)cc2C(F)(F)F)c2ccc(F)cc2)nn1 was 61.2

Quick note, viability, T/C for CC1COCCN1c1cc(C2(O)CC3CCC(C2)O3)c2cnn(-c3ccn[nH]3)c2n1 (configuration not stated) + COC1C(OC(N)=O)C(O)C(Oc2ccc3c(O)c(NC(=O)c4ccc(O)c(CC=C(C)C)c4)c(=O)oc3c2C)OC1(C)C landed at 18

Value of measured viability, T/C for the entry COc1cc(C2c3cc4c(cc3C(OC3OC5COC(C)OC5C(O)C3O)C3COC(=O)C23)OCO4)cc(OC)c1O (configuration not stated) + Nc1ccc(C#CCN(C(=O)Cc2ncc(C(F)(F)F)cc2C(F)(F)F)c2ccc(F)cc2)nn1 : 24.9

Value of measured viability, T/C for the entry CC(C)n1c(=O)n(C)c2cnc3cc(F)c(-c4ccc(OCCCN5CCCCC5)nc4)cc3c21 + Cc1cccc(N(C)C(=O)C2C(O)CCN2c2nc(C)cc(C(F)(F)F)c2C#N)c1 : 102

Consider CC1COCCN1c1cc(C2(O)CC3CCC(C2)O3)c2cnn(-c3ccn[nH]3)c2n1 (configuration not stated) + Nc1ccc(C#CCN(C(=O)Cc2ncc(C(F)(F)F)cc2C(F)(F)F)c2ccc(F)cc2)nn1 . Its measured viability, T/C is 18.9

// CC1COCCN1c1cc(C2(O)CC3CCC(C2)O3)c2cnn(-c3ccn[nH]3)c2n1 (configuration not stated) + Cc1cccc(N(C)C(=O)C2C(O)CCN2c2nc(C)cc(C(F)(F)F)c2C#N)c1 : viability, T/C value = 19.2

Short answer for CCCS(=O)(=O)Nc1ccc(F)c(C(=O)c2c[nH]c3ncc(-c4ccc(Cl)cc4)cc23)c1F + Nc1ccc(C#CCN(C(=O)Cc2ncc(C(F)(F)F)cc2C(F)(F)F)c2ccc(F)cc2)nn1 : viability, T/C was 85.3

Summary for this compound, COc1cccc2c1C(=O)c1c(O)c3c(c(O)c1C2=O)CC(O)(C(=O)CO)CC3OC1CC(N)C(O)C(C)O1 (configuration not stated) + Cc1cccc(N(C)C(=O)C2C(O)CCN2c2nc(C)cc(C(F)(F)F)c2C#N)c1 : viability, T/C is 0.34

The measured viability, T/C associated with COc1cc2cc(C(=O)CCC(=O)O)sc2cc1OC + Nc1ccc(C#CCN(C(=O)Cc2ncc(C(F)(F)F)cc2C(F)(F)F)c2ccc(F)cc2)nn1 reads 90.2

Entry under test: C=CC(=O)N1CCN(c2nc(=O)n(-c3c(C)ccnc3C(C)C)c3nc(-c4c(O)cccc4F)c(F)cc23)C(C)C1 (configuration not stated) + Nc1ccc(C#CCN(C(=O)Cc2ncc(C(F)(F)F)cc2C(F)(F)F)c2ccc(F)cc2)nn1 . Its viability, T/C was 104

Note to self: viability, T/C recorded for COc1cccc2c1C(=O)c1c(O)c3c(c(O)c1C2=O)CC(O)(C(=O)CO)CC3OC1CC(N)C(O)C(C)O1 (configuration not stated) + COC1C(OC(N)=O)C(O)C(Oc2ccc3c(O)c(NC(=O)c4ccc(O)c(CC=C(C)C)c4)c(=O)oc3c2C)OC1(C)C was 0.29

For this compound ( O=C(c1cc(Cc2n[nH]c(=O)c3ccccc23)ccc1F)N1CCN(C(=O)C2CC2)CC1 + Cc1cccc(N(C)C(=O)C2C(O)CCN2c2nc(C)cc(C(F)(F)F)c2C#N)c1 ), measured viability, T/C is 93.9

###

System: 188146-221-R-J1-PDC complex spheroid viability
test_method_notes: Anticancer human tumor 188146-221-R-J1-PDC cell line growth inhibition [POLQ];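 also: spheroids exposed to compounds for seven days; 100% = DMSO vehicle control viability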
conditions_used: second compound 0.0316 µM; first compound 0.0316 µM; stronger effect = lower value
Record form. Attribute: viability, T/C. Fill in for each entry.
The figure you give is taken to be in %; do not add the unit.

In plain terms, CC1COCCN1c1cc(C2(O)CC3CCC(C2)O3)c2cnn(-c3ccn[nH]3)c2n1 (centres undefined) + Cc1cccc(N(C)C(=O)C2C(O)CCN2c2nc(C)cc(C(F)(F)F)c2C#N)c1 has a documented viability, T/C of 83.2

# compound CCc1cc2c(N3CCc4c(cc(Cn5ccnc5)cc4-c4cn(C)nc4C(F)(F)F)C3=O)cc(C)nc2c(OC)n1 + COC1C(OC(N)=O)C(O)C(Oc2ccc3c(O)c(NC(=O)c4ccc(O)c(CC=C(C)C)c4)c(=O)oc3c2C)OC1(C)C ; its viability, T/C = 112

Documented viability, T/C of C=CC(=O)N1CCN(c2nc(=O)n(-c3c(C)ccnc3C(C)C)c3nc(-c4c(O)cccc4F)c(F)cc23)C(C)C1 (centres undefined) + Nc1ccc(C#CCN(C(=O)Cc2ncc(C(F)(F)F)cc2C(F)(F)F)c2ccc(F)cc2)nn1 : 104

Lab note: measured viability, T/C of COc1cc(C2c3cc4c(cc3C(OC3OC5COC(C)OC5C(O)C3O)C3COC(=O)C23)OCO4)cc(OC)c1O (centres undefined) + Nc1ccc(C#CCN(C(=O)Cc2ncc(C(F)(F)F)cc2C(F)(F)F)c2ccc(F)cc2)nn1 was 87.2

###

Test system: 188146-221-R-J1-PDC complex spheroid viability
test_method_notes: Anticancer human tumor 188146-221-R-J1-PDC cell line growth inhibition [POLQ]; active = viability on the fitted dose curve at most 10% of control; inactive = the rest;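 also: spheroids exposed to compounds for seven days; 100% = DMSO vehicle control viability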
conditions_used: second compound 1 µM; first compound 10 µM
Hello, when you answer, please use one of the following outcomes: true (1) (active), false (0) (inactive)

IN: # outcome recorded in this test, key = COc1cccc2c1C(=O)c1c(O)c3c(c(O)c1C2=O)CC(O)(C(=O)CO)CC3OC1CC(N)C(O)C(C)O1 (configuration not stated) + COC1C(OC(N)=O)C(O)C(Oc2ccc3c(O)c(NC(=O)c4ccc(O)c(CC=C(C)C)c4)c(=O)oc3c2C)OC1(C)C
OUT: true (1)

IN: Please state the recorded outcome for this compound: C=CC(=O)N1CCN(c2nc(=O)n(-c3c(C)ccnc3C(C)C)c3nc(-c4c(O)cccc4F)c(F)cc23)C(C)C1 (configuration not stated) + COC1C(OC(N)=O)C(O)C(Oc2ccc3c(O)c(NC(=O)c4ccc(O)c(CC=C(C)C)c4)c(=O)oc3c2C)OC1(C)C
OUT: false (0)

IN: Please state the recorded outcome for this compound: CC1COCCN1c1cc(C2(S(C)(=N)=O)CC2)nc(-c2ccnc3[nH]ccc23)n1 (configuration not stated) + COC1C(OC(N)=O)C(O)C(Oc2ccc3c(O)c(NC(=O)c4ccc(O)c(CC=C(C)C)c4)c(=O)oc3c2C)OC1(C)C
OUT: false (0)

IN: Call for entry CC1COCCN1c1cc(C2(S(C)(=N)=O)CC2)nc(-c2ccnc3[nH]ccc23)n1 (configuration not stated) + Nc1ccc(C#CCN(C(=O)Cc2ncc(C(F)(F)F)cc2C(F)(F)F)c2ccc(F)cc2)nn1 :
OUT: false (0)

IN: Please let me know the test result on file for O=C(c1cc(Cc2n[nH]c(=O)c3ccccc23)ccc1F)N1CCN(C(=O)C2CC2)CC1 + Cc1cccc(N(C)C(=O)C2C(O)CCN2c2nc(C)cc(C(F)(F)F)c2C#N)c1 .
OUT: false (0)

IN: Per the assay record, what outcome was assigned to COc1cccc2c1C(=O)c1c(O)c3c(c(O)c1C2=O)CC(O)(C(=O)CO)CC3OC1CC(N)C(O)C(C)O1 (configuration not stated) + Nc1ccc(C#CCN(C(=O)Cc2ncc(C(F)(F)F)cc2C(F)(F)F)c2ccc(F)cc2)nn1 ?
OUT: true (1)

IN: Dear colleague, could you share the recorded outcome for O=C(Nc1ccc(O)c(NS(=O)(=O)c2ccc(F)cc2)c1)c1ccc(-c2ccccc2)cc1 + COC1C(OC(N)=O)C(O)C(Oc2ccc3c(O)c(NC(=O)c4ccc(O)c(CC=C(C)C)c4)c(=O)oc3c2C)OC1(C)C when you have a moment?
OUT: false (0)

IN: Called result for O=C(c1cc(Cc2n[nH]c(=O)c3ccccc23)ccc1F)N1CCN(C(=O)C2CC2)CC1 + Nc1ccc(C#CCN(C(=O)Cc2ncc(C(F)(F)F)cc2C(F)(F)F)c2ccc(F)cc2)nn1
OUT: false (0)

IN: Just curious, what result did CC1COCCN1c1cc(C2(O)CC3CCC(C2)O3)c2cnn(-c3ccn[nH]3)c2n1 (configuration not stated) + COC1C(OC(N)=O)C(O)C(Oc2ccc3c(O)c(NC(=O)c4ccc(O)c(CC=C(C)C)c4)c(=O)oc3c2C)OC1(C)C get here?
OUT: true (1)

IN: # lookup: test call for COc1ccc([C@@H](O)c2cc(-c3ncnc4cc(N5CCOCC5)ccc34)c(F)cc2Cl)nn1 + Cc1cccc(N(C)C(=O)C2C(O)CCN2c2nc(C)cc(C(F)(F)F)c2C#N)c1
OUT: false (0)

IN: Please share the test call associated with CC1COCCN1c1cc(C2(O)CC3CCC(C2)O3)c2cnn(-c3ccn[nH]3)c2n1 (configuration not stated) + Cc1cccc(N(C)C(=O)C2C(O)CCN2c2nc(C)cc(C(F)(F)F)c2C#N)c1 .
OUT: true (1)

IN: // return assay outcome for CC1COCCN1c1cc(-c2ccnn2C)c2ccnc(-c3ccn[nH]3)c2n1 (configuration not stated) + Cc1cccc(N(C)C(=O)C2C(O)CCN2c2nc(C)cc(C(F)(F)F)c2C#N)c1
OUT: false (0)
